target: T1, mouse CCK-B receptor peptide (custom 15-amino-acid extracellular mouse sequence) (Mus musculus, UniProt P56481)
T1 chain: CETPRIRGTGTRELE
measure.name: binding result

CCK-BR_scFv11-2 (antibody, V domains shown) VH: QVQLKQSGAELVRPGSSVKISCKASGYAFTNYLIEWVKQRPGQGLEWIGQIYPGDGDTNYNGKFKGKATLTVDNSSSTAYMELRSLTSEDSAVYYCARAATWYYAMDYWGQGTSVTVSS VL: QIVLTQSPAIMSASPGEKVTITCSASSSVSYMHWFQQKPGTSPKLWIYSTSNLASGVPARFSGSGSGTSYSLTISSMEAEDAASYFCHQWSSYPWTFGGGTKLEIK :: binds
CCK-BR_scFv8-3 (antibody, V domains shown) VH: QVQLKESGAELAKPGASVKMSCKASGYTFTSYWMHWVKQRPGQGLEWIGYINPSTGYTEYNQKFKDKATLTADKSSSTAYMQLSSLTSEDSAVYYCARDYGSSFDYWGQGTTLTVSS VL: DVVMTQTPLTLSVTIGQPASISCKSSQSLLDSGNQKNYLAWYQQKPGQPPKLLIYGASTRESGVPDRFTGSGSGTDFTLTISSVQAEDLAVYYCQNDHSYPYTFGGGTKLEIK :: binds
CCK-BR_scFv13-3 (antibody, V domains shown) VH: EVQLQQSGAELVKPGASVKMSCKASGYTFTSYWMHWVKQRPGQGLEWIGYINPSTGYTEYNQKFKDKATLTADKSSSTAYMQLSSLTSEDSAVYYCAGDNYGYWYFDVWGAGTTVTVSS VL: DIVMTQSPSSLSVSAGEKVTMSCKSSQSLLNSGNQKNYLAWYQQKPGQPPKLLIYGASTRESGVPDRFTGSGSGTDFTLTISSVQAEDLAVYYCQNDHSYPYTFGGGTKLEIK :: binds
CCK-BR_scFv93-1 (antibody, V domains shown) VH: QVQLKESGPGLVAPSQSLSITCTVSGFSLTSYGVHWVRQPPGKGLEWLGVIWAGGSTNYNSALMSRLSISKDNSKSQVFLKMNSLQTDDTAMYYCARGLRGAMDYWGQGTSVTVSS VL: DIVMTQSPSSLSVSAGEKVTMSCKSSQSLLASGNQNNYLAWHQQKPGRSPKMLIIWASTRESGVPDRFTGSGSGTDFTLTISSVQAEDVAVYYCQNDHSYPFTFGSGTKLEIK :: binds
